Test system: Fibroblast
method: Multiplex assay against human fibroblast
Assay type: toxicity, cell-based
measurementConditions: 48 h, 10 µM, compound concentration 10 uM, replicate 2
quantityKind: Population Normal (%)
Give bare numbers, in %.

Solved cases (5 shown):
>  <compound>
C[C@H](NC(=O)c1c(C(F)F)nn(C)c1Oc1cccc(C(F)(F)F)c1)c1ccc(C(=O)O)cc1

>  <experimentalSystem>
Fibroblast

>  <reportedMeasurement>
86

$$$$
>  <compound>
CC(=O)NCCc1c(Cc2ccccc2)[nH]c2ccccc12

>  <experimentalSystem>
Fibroblast

>  <reportedMeasurement>
95

$$$$
>  <compound>
O=C(NCCO)c1cccc(-c2cc(Nc3ccc(OC(F)(F)F)cc3)ncn2)c1

>  <experimentalSystem>
Fibroblast

>  <reportedMeasurement>
93

$$$$
>  <compound>
CN(C)CCCc1cc(C(=O)Nc2ccc(-c3ccncc3)cc2)ccc1O.Cl.Cl

>  <experimentalSystem>
Fibroblast

>  <reportedMeasurement>
97

$$$$
>  <compound>
CNC[C@H](O)c1ccc(O)c(O)c1 [EPINEPHRINE]

>  <experimentalSystem>
Fibroblast

>  <reportedMeasurement>
96

$$$$

List the reported Population Normal (%) of each compound below.
1. CSc1ccccc1N1CCN(CCCCCC(=O)NC2CCCc3ccccc32)CC1.Cl (centres undefined)
2. COc1cc(C(=O)N(CCCc2ccccc2)Cc2ccc(CC(=O)O)cc2)cc(OC)c1C
3. CC[C@H]1OC(=O)[C@H](C)[C@@H](O[C@H]2C[C@@](C)(OC)[C@@H](O)[C@H](C)O2)[C@H](C)[C@@H](O[C@@H]2O[C@H](C)C[C@H](N(C)C)[C@H]2O)[C@@]2(C)CC(C)=C(O2)[C@H](C)[C@@H](O)[C@]1(C)O

Solution:
95
94
92

Cited source for all entries: ChEMBL document CHEMBL5058577
